# Neutralizing activity IC50 per entry
# assayed-target: cynomolgus monkey EL (cynomolgus monkey)
# method-summary: cell-based or functional assay
value-kind: Neutralizing activity IC50 (nM)

INSERT INTO results (binder, value_kind, observed_measurement) VALUES
  ('h23H8-S1 (antibody, V domains shown) VH: QVQLVQSGAEVKKPGASVKVSCKASGYTFTDNTIHWVRQAPGQGLEWMGHINPYYGGTNNNEKFKDRVTMTRDTSISTAYMELSRLRSDDTAVYYCARKGIYYSSPFDYWGQGTTVTVSS VL: DIQMTQSPSSLSASVGDRVTITCRASQDINNYLNWYQQKPGKAPKLLIYYTSKLHSGVPSRFSGSGSGTDFTLTISSLQPEDFATYYCQQGNTLPFTFGQGTKLEIK', 'Neutralizing activity IC50', 26),
  ('h13B3-S1 (antibody, V domains shown) VH: QVQLVQSGAEVKKPGASVKVSCKASGYTFTEYTMHWVRQAPGQGLEWMGSINPYYGGTSYNEKFKDRVTMTRDTSTSTVYMELSSLRSEDTAVYYCARYGNYVGYFDYWGQGTTVTVSS VL: EIVLTQSPGTLSLSPGERATLSCRASSSVHYMYWYQQKPGQAPRLLIYYTSNLAPGIPDRFSGSGSGTDFTLTISRLEPEDFAVYYCQQFTSSPYTFGGGTKVEIK', 'Neutralizing activity IC50', 2.4),
  ('h53A11-S3 (antibody, V domains shown) VH: QVQLVQSGAEVKKPGASVKVSCKASGYTFTDYTMHWVRQAPGQRLEWMGGINPYYGGTTYNEKFKDRVTITRDTSASTAYMELSSLRSEDTAVYYCAKGDYYGGSYNYWGQGTTVTVSS VL: EIVMTQSPATLSVSPGERATLSCRASQDISNSLHWYQQKPGQAPRLLIKYASQSISGIPARFSGSGSGTEFTLTISSLQSEDFAVYYCQQSNSWPYTFGQGTKLEIK', 'Neutralizing activity IC50', 1.2),
  ('h13B3-S3 (antibody, V domains shown) VH: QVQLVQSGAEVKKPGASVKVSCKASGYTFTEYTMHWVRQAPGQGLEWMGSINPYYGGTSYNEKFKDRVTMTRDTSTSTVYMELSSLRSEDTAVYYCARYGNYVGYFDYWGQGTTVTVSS VL: EIVLTQSPATLSLSPGERATLSCRASSSVHYMYWYQQKPGQAPRLLIYYTSNLAPGIPARFSGSGSGTDFTLTISSLEPEDFAVYYCQQFTSSPYTFGGGTKVEIK', 'Neutralizing activity IC50', 4.1);
